- Test system: PZ
- method description: 48 h incubation with the salts: cell fluorescence, living cells, multiplication coefficient (Table 1)
- Type: cell-based
- condition details: 48 hs, 50 mcg/ml
measure name: Cell fluorescence /F/

1. CC1=C(CCC(=O)O)c2cc3[nH]c(cc4nc(cc5[nH]c(cc1n2)c(C(C)NC(CS)C(=O)O)c5C)C(C(C)NC(CS)C(=O)O)=C4C)c(C)c3CCC(=O)O.N=C(N)NCCC[C@H](N)C(=O)O.N=C(N)NCCC[C@H](N)C(=O)O (stereo not drawn); +
2. CC1=C(CCC(=O)O)c2cc3[nH]c(cc4nc(cc5[nH]c(cc1n2)c(C(C)NC(Cc1ccccc1)C(=O)O)c5C)C(C(C)NC(Cc1ccccc1)C(=O)O)=C4C)c(C)c3CCC(=O)O.N=C(N)NCCC[C@H](N)C(=O)O.N=C(N)NCCC[C@H](N)C(=O)O (stereo not drawn); +
3. CC1=C(CCC(=O)O)c2cc3[nH]c(cc4nc(cc5[nH]c(cc1n2)c(C(C)NC(CO)C(=O)O)c5C)C(C(C)NC(CO)C(=O)O)=C4C)c(C)c3CCC(=O)O.N=C(N)NCCC[C@H](N)C(=O)O.N=C(N)NCCC[C@H](N)C(=O)O (stereo not drawn) [PP/Ser/2 /Arg/2, l-arginine di/N-seryl/-protoporphyrinate]; ++
4. CC1=C(CCC(=O)O)c2cc3[nH]c(cc4nc(cc5[nH]c(cc1n2)c(C(C)NC(CCCCN)C(=O)O)c5C)C(C(C)NC(CCCCN)C(=O)O)=C4C)c(C)c3CCC(=O)O.N=C(N)NCCC[C@H](N)C(=O)O.N=C(N)NCCC[C@H](N)C(=O)O (stereo not drawn) [PP/Lys/2 /Arg/2, l-arginine di/N-lysyl/-protoporphyrinate]; +
5. CC1=C(CCC(=O)O)c2cc3[nH]c(cc4nc(cc5[nH]c(cc1n2)c(C(C)NC(Cc1c[nH]c2ccccc12)C(=O)O)c5C)C(C(C)NC(Cc1c[nH]c2ccccc12)C(=O)O)=C4C)c(C)c3CCC(=O)O.N=C(N)NCCC[C@H](N)C(=O)O.N=C(N)NCCC[C@H](N)C(=O)O (stereo not drawn); +
6. CC1=C(CCC(=O)O)c2cc3[nH]c(cc4nc(cc5[nH]c(cc1n2)c(C(C)NC(CC(=O)O)C(=O)O)c5C)C(C(C)NC(CC(=O)O)C(=O)O)=C4C)c(C)c3CCC(=O)O.N=C(N)NCCC[C@H](N)C(=O)O.N=C(N)NCCC[C@H](N)C(=O)O (stereo not drawn); +
7. CC1=C(CCC(=O)O)c2cc3[nH]c(cc4nc(cc5[nH]c(cc1n2)c(C(C)NC(CCC(=O)O)C(=O)O)c5C)C(C(C)NC(CCC(=O)O)C(=O)O)=C4C)c(C)c3CCC(=O)O.N=C(N)NCCC[C@H](N)C(=O)O.N=C(N)NCCC[C@H](N)C(=O)O (stereo not drawn); +
8. CC1=C(CCC(=O)O)c2cc3[nH]c(cc4nc(cc5[nH]c(cc1n2)c(C(C)NC(C)C(=O)O)c5C)C(C(C)NC(C)C(=O)O)=C4C)c(C)c3CCC(=O)O.N=C(N)NCCC[C@H](N)C(=O)O.N=C(N)NCCC[C@H](N)C(=O)O (stereo not drawn); ++
9. CSCCC(NC(C)C1=C(C)c2cc3[nH]c(cc4nc(cc5[nH]c(cc1n2)c(C)c5C(C)NC(CCSC)C(=O)O)C(C)=C4CCC(=O)O)c(CCC(=O)O)c3C)C(=O)O.N=C(N)NCCC[C@H](N)C(=O)O.N=C(N)NCCC[C@H](N)C(=O)O (stereo not drawn); +

* * *

- System: GR (GRMT/F6, mammary gland cancer cells of GR-strain mice)
- method description: 48 h incubation with the salts: cell fluorescence, living cells, multiplication coefficient (Table 2)
- Type: cell-based, Murine
- condition details: 48 hs, 50 mcg/ml
Measured Percentage of living cells /P %/ by item
measure name: Percentage of living cells /P %/ (%)

1. CC1=C(CCC(=O)O)c2cc3[nH]c(cc4nc(cc5[nH]c(cc1n2)c(C(C)NC(CS)C(=O)O)c5C)C(C(C)NC(CS)C(=O)O)=C4C)c(C)c3CCC(=O)O.N=C(N)NCCC[C@H](N)C(=O)O.N=C(N)NCCC[C@H](N)C(=O)O (stereo not shown); 50
2. CC1=C(CCC(=O)O)c2cc3[nH]c(cc4nc(cc5[nH]c(cc1n2)c(C(C)NC(CCC(=O)O)C(=O)O)c5C)C(C(C)NC(CCC(=O)O)C(=O)O)=C4C)c(C)c3CCC(=O)O.N=C(N)NCCC[C@H](N)C(=O)O.N=C(N)NCCC[C@H](N)C(=O)O (stereo not shown); 75
3. CSCCC(NC(C)C1=C(C)c2cc3[nH]c(cc4nc(cc5[nH]c(cc1n2)c(C)c5C(C)NC(CCSC)C(=O)O)C(C)=C4CCC(=O)O)c(CCC(=O)O)c3C)C(=O)O.N=C(N)NCCC[C@H](N)C(=O)O.N=C(N)NCCC[C@H](N)C(=O)O (stereo not shown); 25
4. CC1=C(CCC(=O)O)c2cc3[nH]c(cc4nc(cc5[nH]c(cc1n2)c(C(C)NC(Cc1ccccc1)C(=O)O)c5C)C(C(C)NC(Cc1ccccc1)C(=O)O)=C4C)c(C)c3CCC(=O)O.N=C(N)NCCC[C@H](N)C(=O)O.N=C(N)NCCC[C@H](N)C(=O)O (stereo not shown); 0

* * *

Measured Cell multiplication coefficient /M/ by item
- Test system: Mm (Mm5MT/C1, mammary gland cancer cells of C3H-strain mice)
- method description: 48 h incubation with the salts: cell fluorescence, living cells, multiplication coefficient (Table 3)
- Type: cell-based, Murine
- condition details: Mm; 48 hs; 50 mcg/ml
measure name: Cell multiplication coefficient /M/

1. CSCCC(NC(C)C1=C(C)c2cc3[nH]c(cc4nc(cc5[nH]c(cc1n2)c(C)c5C(C)NC(CCSC)C(=O)O)C(C)=C4CCC(=O)O)c(CCC(=O)O)c3C)C(=O)O.N=C(N)NCCC[C@H](N)C(=O)O.N=C(N)NCCC[C@H](N)C(=O)O (stereo not drawn); 0,08
2. CC1=C(CCC(=O)O)c2cc3[nH]c(cc4nc(cc5[nH]c(cc1n2)c(C(C)NC(CO)C(=O)O)c5C)C(C(C)NC(CO)C(=O)O)=C4C)c(C)c3CCC(=O)O.N=C(N)NCCC[C@H](N)C(=O)O.N=C(N)NCCC[C@H](N)C(=O)O (stereo not drawn) [PP/Ser/2 /Arg/2, l-arginine di/N-seryl/-protoporphyrinate]; 0,37
3. CC1=C(CCC(=O)O)c2cc3[nH]c(cc4nc(cc5[nH]c(cc1n2)c(C(C)NC(CC(=O)O)C(=O)O)c5C)C(C(C)NC(CC(=O)O)C(=O)O)=C4C)c(C)c3CCC(=O)O.N=C(N)NCCC[C@H](N)C(=O)O.N=C(N)NCCC[C@H](N)C(=O)O (stereo not drawn); 0,92
4. CC1=C(CCC(=O)O)c2cc3[nH]c(cc4nc(cc5[nH]c(cc1n2)c(C(C)NC(C)C(=O)O)c5C)C(C(C)NC(C)C(=O)O)=C4C)c(C)c3CCC(=O)O.N=C(N)NCCC[C@H](N)C(=O)O.N=C(N)NCCC[C@H](N)C(=O)O (stereo not drawn); 0,84
5. CC1=C(CCC(=O)O)c2cc3[nH]c(cc4nc(cc5[nH]c(cc1n2)c(C(C)NC(CCC(=O)O)C(=O)O)c5C)C(C(C)NC(CCC(=O)O)C(=O)O)=C4C)c(C)c3CCC(=O)O.N=C(N)NCCC[C@H](N)C(=O)O.N=C(N)NCCC[C@H](N)C(=O)O (stereo not drawn); 0,70
6. CC1=C(CCC(=O)O)c2cc3[nH]c(cc4nc(cc5[nH]c(cc1n2)c(C(C)NC(CS)C(=O)O)c5C)C(C(C)NC(CS)C(=O)O)=C4C)c(C)c3CCC(=O)O.N=C(N)NCCC[C@H](N)C(=O)O.N=C(N)NCCC[C@H](N)C(=O)O (stereo not drawn); 0,73
7. CC1=C(CCC(=O)O)c2cc3[nH]c(cc4nc(cc5[nH]c(cc1n2)c(C(C)NC(Cc1c[nH]c2ccccc12)C(=O)O)c5C)C(C(C)NC(Cc1c[nH]c2ccccc12)C(=O)O)=C4C)c(C)c3CCC(=O)O.N=C(N)NCCC[C@H](N)C(=O)O.N=C(N)NCCC[C@H](N)C(=O)O (stereo not drawn); 0,33
8. CC1=C(CCC(=O)O)c2cc3[nH]c(cc4nc(cc5[nH]c(cc1n2)c(C(C)NC(Cc1ccccc1)C(=O)O)c5C)C(C(C)NC(Cc1ccccc1)C(=O)O)=C4C)c(C)c3CCC(=O)O.N=C(N)NCCC[C@H](N)C(=O)O.N=C(N)NCCC[C@H](N)C(=O)O (stereo not drawn); 0,37
9. CC1=C(CCC(=O)O)c2cc3[nH]c(cc4nc(cc5[nH]c(cc1n2)c(C(C)NC(CCCCN)C(=O)O)c5C)C(C(C)NC(CCCCN)C(=O)O)=C4C)c(C)c3CCC(=O)O.N=C(N)NCCC[C@H](N)C(=O)O.N=C(N)NCCC[C@H](N)C(=O)O (stereo not drawn) [PP/Lys/2 /Arg/2, l-arginine di/N-lysyl/-protoporphyrinate]; 0,80
